Tested on: H3255
protocol: relative viability (nuclei count vs DMSO), 5 days (fraction); higher = more cells survive
conditions-used: first compound 0.01 µM
assay-metric: relative viability

>  <compound>
CCN(CC)CCCCNc1ncc2cc(-c3cc(OC)cc(OC)c3)c(NC(=O)NC(C)(C)C)nc2n1 + Cc1nc(Nc2ncc(C(=O)Nc3c(C)cccc3Cl)s2)cc(N2CCN(CCO)CC2)n1 [Dasatinib] (partner 0.075 µM)

>  <measurement-target>
H3255

>  <reported-measurement>
0.342

$$$$

Data point: CCN(CC)CCCCNc1ncc2cc(-c3cc(OC)cc(OC)c3)c(NC(=O)NC(C)(C)C)nc2n1 + NC(=O)Nc1cc(-c2cccc(F)c2)sc1C(=O)N[C@H]1CCCNC1 [AZD7762] (partner 0.2 µM) ; relative viability = 0.84

Entry O=c1cc(N2CCOCC2)oc2c(-c3cccc4c3sc3ccccc34)cccc12 + Nc1ncn([C@H]2C[C@H](O)[C@@H](CO)O2)c(=O)n1 [Decitabine] (partner 2 µM) , relative viability reported as 0.598

relative viability reported for this compound O=c1cc(N2CCOCC2)oc2c(-c3cccc4c3sc3ccccc34)cccc12 + NC(=O)Nc1cc(-c2cccc(F)c2)sc1C(=O)N[C@H]1CCCNC1 [AZD7762] (partner 0.2 µM) : 0.901

Lab note: measured relative viability of O=c1cc(N2CCOCC2)oc2c(-c3cccc4c3sc3ccccc34)cccc12 + CC(=O)c1c(C)c2cnc(Nc3ccc(N4CCNCC4)cn3)nc2n(C2CCCC2)c1=O [Palbociclib] (partner 0.5 µM) was 0.314

* * *

System: NCI-H460
protocol: relative viability (nuclei count vs DMSO), 5 days (fraction); higher = more cells survive
conditions-used: first compound 2.53 µM
assay-metric: relative viability
Answer with the value's number alone.

>  <compound>
O=c1cc(-c2cccc3c2Sc2ccccc2S3)oc(N2CCOCC2)c1 + CC(C)C[C@H](NC(=O)[C@H](Cc1ccccc1)NC(=O)c1cnccn1)B(O)O [Bortezomib] (partner 0.002 µM)

>  <relative viability>
1.02

$$$$
>  <compound>
COc1nc(C)cnc1NS(=O)(=O)c1cccnc1-c1ccc(-c2nnco2)cc1 [Zibotentan] + CC1(C)CCC(c2ccc(Cl)cc2)=C(CN2CCN(c3ccc(C(=O)NS(=O)(=O)c4ccc(N[C@H](CCN5CCOCC5)CSc5ccccc5)c(S(=O)(=O)C(F)(F)F)c4)cc3)CC2)C1 [Navitoclax] (partner 0.5 µM)

>  <relative viability>
1.23

$$$$
>  <compound>
COc1nc(C)cnc1NS(=O)(=O)c1cccnc1-c1ccc(-c2nnco2)cc1 [Zibotentan] + COc1cc2c(Oc3ccc(NC(=O)C4(C(=O)Nc5ccc(F)cc5)CC4)cc3F)ccnc2cc1OCCCN1CCOCC1 [Foretinib] (partner 0.25 µM)

>  <relative viability>
1.05

$$$$

For O=c1cc(-c2cccc3c2Sc2ccccc2S3)oc(N2CCOCC2)c1 + C[C@]1(O)C[C@@H](c2nc(-c3ccc4ccc(-c5ccccc5)nc4c3)c3c(N)nccn32)C1 [Linsitinib] (partner 1 µM) the compound record lists relative viability as 0.796

* * *

Tested on: 201T
protocol: relative viability (nuclei count vs DMSO), 5 days (fraction); higher = more cells survive
conditions-used: first compound 0.6325 µM
Entries and their measured relative viability follow.
Reply: number alone, nothing else.

>  <compound>
COCC1(CO)C(=O)C2CCN1CC2 (centres undefined) [PRIMA-1MET] + Cc1nc(NC(=O)N2CCC[C@H]2C(N)=O)sc1-c1ccnc(C(C)(C)C(F)(F)F)c1 [Alpelisib] (partner 2 µM)

>  <measurement-target>
201T

>  <relative viability>
0.971

$$$$
>  <compound>
COCC1(CO)C(=O)C2CCN1CC2 (centres undefined) [PRIMA-1MET] + COc1cccc2cc(-c3nc([C@H]4CC[C@H](C(=O)O)CC4)n4ncnc(N)c34)[nH]c12 [OSI-027] (partner 0.5 µM)

>  <measurement-target>
201T

>  <relative viability>
0.702

$$$$
>  <compound>
COCC1(CO)C(=O)C2CCN1CC2 (centres undefined) [PRIMA-1MET] + COc1cc2c(Oc3ccc(NC(=O)C4(C(=O)Nc5ccc(F)cc5)CC4)cc3F)ccnc2cc1OCCCN1CCOCC1 [Foretinib] (partner 0.25 µM)

>  <measurement-target>
201T

>  <relative viability>
1.09

$$$$

Reported relative viability for COCC1(CO)C(=O)C2CCN1CC2 (centres undefined) [PRIMA-1MET] + O=C(CCCCCCC(=O)Nc1ccccc1)NO [Vorinostat] (partner 1 µM) was 0.676
